B1: MNAT1 (parent)
chain: SLREYNDFLEEVEEIVFNLTNNVD

variants of: B1; test: protein stability index of a GFP-peptide fusion (GPS, HEK-293T) (PSI 1-6); higher = more stable; settings: c terminus: a fixed tail appended;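 further: lentivirally expressed fusions sorted by FACS into six bins by GFP to DsRed ratio, PSI derived from sequencing read proportions per bin multiplied by bin number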
Each record here notes measured protein stability index.
// keep it numeric: no unit symbol after the value

SLREYNDFSEEVEEIVFNLTNNVD [L9S]: 4.82
SLREYNDFLEEVEFIVFNLTNNVD [E14F]: 2.82
SLREDNDFLEEVEEIVFNLTNNVD [Y5D]: 2.23

Here is the next item to consider.
// query protein stability index value for entry SLREYNDFLEEVEEIVFNLTNDVD [N22D] 1.98
